Target: Purified recombinant human PCSK9 (His-tagged, BPS Biosciences) (human) (UniProt Q8NBP7)
Sequence (Q8NBP7 31-692 limits assumed): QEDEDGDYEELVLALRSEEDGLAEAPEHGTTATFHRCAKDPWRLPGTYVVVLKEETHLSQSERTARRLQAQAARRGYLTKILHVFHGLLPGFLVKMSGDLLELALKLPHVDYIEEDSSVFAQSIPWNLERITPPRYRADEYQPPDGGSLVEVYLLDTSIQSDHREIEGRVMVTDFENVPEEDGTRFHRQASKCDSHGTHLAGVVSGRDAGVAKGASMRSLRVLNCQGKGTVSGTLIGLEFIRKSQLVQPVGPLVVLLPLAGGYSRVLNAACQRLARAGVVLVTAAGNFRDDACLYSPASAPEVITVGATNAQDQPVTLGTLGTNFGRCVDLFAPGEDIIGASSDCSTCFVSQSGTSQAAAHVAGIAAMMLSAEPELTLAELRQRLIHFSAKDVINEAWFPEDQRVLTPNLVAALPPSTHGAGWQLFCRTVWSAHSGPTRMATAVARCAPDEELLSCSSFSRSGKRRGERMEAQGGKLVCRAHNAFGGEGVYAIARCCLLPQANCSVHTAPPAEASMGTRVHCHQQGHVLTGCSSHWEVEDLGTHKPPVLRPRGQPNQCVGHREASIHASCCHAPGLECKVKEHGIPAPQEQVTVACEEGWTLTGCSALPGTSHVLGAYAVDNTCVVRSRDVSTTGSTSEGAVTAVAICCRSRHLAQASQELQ
Assay: SPR (Biacore T200), PCSK9 amine-coupled on chip, peptide at 50 µM
Non-standard residues stand in square brackets, D forms with d. No end group written: not given here. Cit = NC(=O)NCCC[C@H](N)C(=O)O; Nle = CCCC[C@H](N)C(=O)O; Aib = CC(C)(N)C(=O)O
RESULT TYPE: Binding - Response Unit (RU)

> print(dat)
                                     binder  test.result
1  SIPWNLE[Cit]ITPC [Short chain peptide Seq. ID. No. 12 (SIPWNLE-Cit-ITPC)]          3.1
2  SIPWN[Nle]ERITPC [Short chain peptide Seq. ID. No. 7 (SIPWN-Nle-ERITPC)]         6.65

A = [Aib]IPWNLERITPC [Short chain peptide Seq. ID. No. 14 (Aib-…)]
B = SIPWN[Aib]ERITPC [Short chain peptide Seq. ID. No. 10 (SIPWN-Aib-ERITPC)]
Problem: I'd appreciate it if you could identify which of A and B has the greater Binding - Response Unit (RU). Provide the label of your selected option as the answer.
Solution: A
